From: paper PMC8069832

- System: MCF-7
- method-notes: cells
- conditions-used: Homo sapiens, MCF7, 48 h, read-out: Cell growth (%) MCF-7
Listing of entries alongside the reported activity at 10 µM.
measured-metric: activity at 10 µM

In [3]: df
Out[3]:
                           structure_smiles  system  result
0            N#C[Se]c1ccc(NC(=O)c2ccno2)cc1   MCF-7     91%
1      N#C[Se]c1ccc(NC(=O)/C=C/c2ccccc2)cc1   MCF-7     65%
2  N#C[Se]c1ccc(NC(=O)c2ccc([N+](=O)[O-])cc2)cc1   MCF-7   33.4%
3       CSc1ccc(C(=O)Nc2ccc([Se]C#N)cc2)cc1   MCF-7   69.5%
4  O=C(Nc1ccc([Se][Se]c2ccc(NC(=O)c3ccc(C(F)(F)F)cc3)cc2)cc1)c1ccc(C(F)(F)F)cc1   MCF-7    9.1%

====

- Tested on: 184B5
- method-notes: MTT cytotoxicity in nonmalignant mammary gland derived cells
- Format: cell-based
- conditions-used: breast
Rule for this label: Yes means Selectivity index (SI) = GI50 (184B5)/GI50 (MCF-7) is less than 2; No means Selectivity index (SI) = GI50 (184B5)/GI50 (MCF-7) is at least 2.

>>> print(df.to_string())
                                   compound  discrete_label
0  N#C[Se]c1ccc(NC(=O)c2ccc(Cl)cc2)cc1 [I.2b]             Yes
1  CCOP(=O)(Nc1ccc([Se][Se]c2ccc(NP(=O)(OCC)OCC)cc2)cc1)OCC [II.1d]              No
2  O=C(Nc1ccc([Se][Se]c2ccc(NC(=O)c3ccc([N+](=O)[O-])cc3)cc2)cc1)c1ccc([N+](=O)[O-])cc1 [I.1e]             Yes
3  O=C(Nc1ccc([Se][Se]c2ccc(NC(=O)c3ccco3)cc2)cc1)c1ccco1 [I.1h]             Yes
4     N#C[Se]c1ccc(NC(=O)c2ccco2)cc1 [I.2h]              No
5   CCOP(=O)(Nc1ccc([Se]C#N)cc1)OCC [II.2d]              No
6  O=C(Nc1ccc([Se][Se]c2ccc(NC(=O)c3ccc(Cl)cc3)cc2)cc1)c1ccc(Cl)cc1 [I.1b]             Yes
7     COP(=O)(Nc1ccc([Se]C#N)cc1)OC [II.2b]              No
8  COP(=O)(Nc1ccc([Se][Se]c2ccc(NP(=O)(OC)OC)cc2)cc1)OC [II.1b]             Yes

====

- Tested on: CCRF-CEM
- method-notes: cells
- conditions-used: Homo sapiens, 48 h, read-out: GI50 CCRF-CEM
measured-metric: log10(GI50) (log10 of the value in µM)

>>> df
                            structure_smiles  measured_metric  result
 0  CCOP(=O)(Nc1ccc([Se][Se]c2ccc(NP(=O)(OCC)OCC)cc2)cc1)OCC      log10(GI50)   -0.40
 1           CCOP(=O)(Nc1ccc([Se]C#N)cc1)OCC      log10(GI50)   -0.70
 2  O=C(Nc1ccc([Se][Se]c2ccc(NC(=O)c3ccc([N+](=O)[O-])cc3)cc2)cc1)c1ccc([N+](=O)[O-])cc1      log10(GI50)    0.81
 3  O=C(Nc1ccc([Se][Se]c2ccc(NC(=O)c3ccc(Cl)cc3)cc2)cc1)c1ccc(Cl)cc1      log10(GI50)    0.95
 4       N#C[Se]c1ccc(NC(=O)c2ccc(Cl)cc2)cc1      log10(GI50)    0.94
 5            N#C[Se]c1ccc(NC(=O)c2ccco2)cc1      log10(GI50)    1.34
 6             COP(=O)(Nc1ccc([Se]C#N)cc1)OC      log10(GI50)    0.20
 7  N#C[Se]c1ccc(NC(=O)c2ccc(C(F)(F)F)cc2)cc1      log10(GI50)    0.86
 8  O=C(Nc1ccc([Se][Se]c2ccc(NC(=O)c3ccc(C(F)(F)F)cc3)cc2)cc1)c1ccc(C(F)(F)F)cc1      log10(GI50)    0.67
 9  COP(=O)(Nc1ccc([Se][Se]c2ccc(NP(=O)(OC)OC)cc2)cc1)OC      log10(GI50)    0.30
10  O=C(Nc1ccc([Se][Se]c2ccc(NC(=O)c3ccco3)cc2)cc1)c1ccco1      log10(GI50)    0.61
11  N#C[Se]c1ccc(NC(=O)c2ccc([N+](=O)[O-])cc2)cc1      log10(GI50)    1.50

====

Listing of entries alongside the reported LC50 (50% lethal concentration) at 48 h.
- method-notes: MTT cytotoxicity in nonmalignant bronchial epithelium cells
- Format: cell-based
- conditions-used: human
- Text: Cell lines were provided by the European Collection of Cell Cultures (ECACC) or by the American Type Culture Collection (ATCC). […] The lack of selectivity toward cancerous cells is one of the major issues during the discovery and development of new anticancer agents. Therefore, we evaluated the cytotoxic activity of our compounds against two cell lines derived from nonmalignant breast tissue (184B5) and no malignant bronchial epithelium (BEAS-2B) (Table 2). […]
measured-metric: LC50 (50% lethal concentration) at 48 h

>>> print(df.to_string())
                           structure_smiles    result
0       N#C[Se]c1ccc(NC(=O)c2ccc(Cl)cc2)cc1  > 100 µM
1  O=C(Nc1ccc([Se][Se]c2ccc(NC(=O)c3ccco3)cc2)cc1)c1ccco1   70.7 µM
2  O=C(Nc1ccc([Se][Se]c2ccc(NC(=O)c3ccc(C(F)(F)F)cc3)cc2)cc1)c1ccc(C(F)(F)F)cc1   72.9 µM
3  O=C(Nc1ccc([Se][Se]c2ccc(NC(=O)c3ccc(Cl)cc3)cc2)cc1)c1ccc(Cl)cc1  > 100 µM
4  O=C(Nc1ccc([Se][Se]c2ccc(NC(=O)c3ccc([N+](=O)[O-])cc3)cc2)cc1)c1ccc([N+](=O)[O-])cc1   15.8 µM
5  N#C[Se]c1ccc(NC(=O)c2ccc([N+](=O)[O-])cc2)cc1  > 100 µM

====

Listing of entries alongside the reported GI50.
- Test system: HT-29
- method-notes: cells
- conditions-used: Homo sapiens, HT-29, 48 h, read-out: GI50 HT-29
measured-metric: GI50 (µM)

                            structure_smiles  measurement_units  result
 0             COP(=O)(Nc1ccc([Se]C#N)cc1)OC                 µM       2
 1            N#C[Se]c1ccc(NC(=O)c2ccco2)cc1                 µM    42.7
 2       N#C[Se]c1ccc(NC(=O)c2ccc(Cl)cc2)cc1                 µM    16.5
 3  O=C(Nc1ccc([Se][Se]c2ccc(NC(=O)c3ccc([N+](=O)[O-])cc3)cc2)cc1)c1ccc([N+](=O)[O-])cc1                 µM    16.8
 4  O=C(Nc1ccc([Se][Se]c2ccc(NC(=O)c3ccc(Cl)cc3)cc2)cc1)c1ccc(Cl)cc1                 µM       3
 5  O=C(Nc1ccc([Se][Se]c2ccc(NC(=O)c3ccc(C(F)(F)F)cc3)cc2)cc1)c1ccc(C(F)(F)F)cc1                 µM     0.1
 6  O=C(Nc1ccc([Se][Se]c2ccc(NC(=O)c3ccco3)cc2)cc1)c1ccco1                 µM    17.4
 7  N#C[Se]c1ccc(NC(=O)c2ccc([N+](=O)[O-])cc2)cc1                 µM     0.8
 8  COP(=O)(Nc1ccc([Se][Se]c2ccc(NP(=O)(OC)OC)cc2)cc1)OC                 µM      20
 9  N#C[Se]c1ccc(NC(=O)c2ccc(C(F)(F)F)cc2)cc1                 µM     0.6
10           CCOP(=O)(Nc1ccc([Se]C#N)cc1)OCC                 µM       5
11  CCOP(=O)(Nc1ccc([Se][Se]c2ccc(NP(=O)(OCC)OCC)cc2)cc1)OCC                 µM     1.7

====

- Test system: BEAS-2B
- method-notes: MTT cytotoxicity in nonmalignant bronchial epithelium cells
- Type: cell-based
- conditions-used: Homo sapiens, BEAS-2B; nonmalignant cells, 48 h; read-out: TGI BEAS-2B
Listing of entries alongside the reported IC (TGI).
measured-metric: IC (TGI) (µM)

>>> df
                           structure_smiles   system  relation_symbol  result
0  COP(=O)(Nc1ccc([Se][Se]c2ccc(NP(=O)(OC)OC)cc2)cc1)OC  BEAS-2B                =    41.3
1       N#C[Se]c1ccc(NC(=O)c2ccc(Cl)cc2)cc1  BEAS-2B                >     100
2  O=C(Nc1ccc([Se][Se]c2ccc(NC(=O)c3ccc(C(F)(F)F)cc3)cc2)cc1)c1ccc(C(F)(F)F)cc1  BEAS-2B                =    41.8
3  O=C(Nc1ccc([Se][Se]c2ccc(NC(=O)c3ccc([N+](=O)[O-])cc3)cc2)cc1)c1ccc([N+](=O)[O-])cc1  BEAS-2B                =     4.8
4  N#C[Se]c1ccc(NC(=O)c2ccc([N+](=O)[O-])cc2)cc1  BEAS-2B                >     100
